assayed_target: Bromodomain-containing protein 4 (Homo sapiens, UniProt O60885)
assay_remarks: Inhibition of human His-tagged BRD4 BD1 (49 to 170 residues) at 30 uM using H-SGRGK(Ac)GGK(Ac)GLGK-(Ac)GGAK(Ac)RHRK(Biotin)-OH as substrate preincubated for 30 mins followed by substrate addition measured after 30 mins by TR-FRET assay relative to control
The following compounds are listed with their measured inhibition values.
Give just the number in %; leave the unit off.

Sample answers from the record:
compound: O=C1CCN(C(=O)c2cccnc2)c2ccccc2N1
assayed_target: Bromodomain-containing protein 4 (Homo sapiens, UniProt O60885)
inhibition (%): 45.2
//
compound: Cc1noc(C)c1NC(=O)c1cccc(-c2ccccc2)c1
assayed_target: Bromodomain-containing protein 4 (Homo sapiens, UniProt O60885)
inhibition (%): 46.2
//
compound: Cc1noc(C)c1NC(=O)c1ccc2ccccc2c1
assayed_target: Bromodomain-containing protein 4 (Homo sapiens, UniProt O60885)
inhibition (%): 23.1
//
compound: COc1cc(C(=O)Nc2c(C)noc2C)cc(-c2ccccc2)c1
assayed_target: Bromodomain-containing protein 4 (Homo sapiens, UniProt O60885)
inhibition (%): 64.5
//
compound: COc1cc(C(=O)N2CCC(=O)Nc3ccccc32)cc(-c2ccccc2)c1
assayed_target: Bromodomain-containing protein 4 (Homo sapiens, UniProt O60885)
inhibition (%): 88.8
//
compound: O=C1CCCc2c1ccn2C(=O)c1cccc(-c2ccccc2)c1
assayed_target: Bromodomain-containing protein 4 (Homo sapiens, UniProt O60885)
inhibition (%): 32.1
//
compound: COc1cc(C(=O)n2ccc3c2CCCC3=O)cc(-c2ccccc2)c1
assayed_target: Bromodomain-containing protein 4 (Homo sapiens, UniProt O60885)
inhibition (%): 22.8
//
compound: O=C1CCN(C(=O)c2cccc(-c3ccccc3)c2)c2ccccc2N1
assayed_target: Bromodomain-containing protein 4 (Homo sapiens, UniProt O60885)
inhibition (%): 96.1

Now consider the entry below.
q: Output reported inhibition of the compound Cc1noc(C)c1NC(=O)c1cccnc1 on Bromodomain-containing protein 4 (Homo sapiens, UniProt O60885).
a: 32.6

----------
assayed_target: Bromodomain-containing protein 4 (Homo sapiens, UniProt O60885)
assay_remarks: Inhibition of human BRD4 BD2 (342 to 460 residues) at 30 uM preincubated for 30 mins followed by substrate addition measured after 30 mins by TR-FRET assay
The following compounds are listed with their measured IC50 values.
Give just the number in µM; leave the unit off.

structure_smiles: O=C1CCN(C(=O)c2cccc(-c3ccccc3)c2)c2ccccc2N1
IC50, µM: 11.2

Now consider the entry below.
q: // fetch IC50 given entry COc1cc(C(=O)N2CCC(=O)Nc3ccccc32)cc(-c2ccccc2)c1
a: 9.14

----------
The following compounds are listed with their measured inhibition values.
assayed_target: Bromodomain-containing protein 4 (Homo sapiens)
assay_remarks: Inhibition of human His-tagged BRD4 BD1 (49 to 170 residues) at 30 uM using H-SGRGK(Ac)GGK(Ac)GLGK-(Ac)GGAK(Ac)RHRK(Biotin)-OH as substrate preincubated for 30 mins followed by substrate addition measured after 30 mins by TR-FRET assay relative to control
Give just the number in %; leave the unit off.

Sample answers from the record:
compound: O=C1CCN(C(=O)c2ccccc2)c2ccccc2N1
obs_value: 32.4
//
compound: CC1C(=O)Nc2ccccc2N1C(=O)c1cccc(-c2ccccc2)c1 (stereo unspecified)
obs_value: 72.4

q: Output reported inhibition of the compound O=C1CCN(C(=O)c2ccc3ccccc3c2)c2ccccc2N1 on Bromodomain-containing protein 4 (Homo sapiens).
a: 25.3

q: Output reported inhibition of the compound O=C1CCCc2c1ccn2C(=O)c1ccc2ccccc2c1 on Bromodomain-containing protein 4 (Homo sapiens).
a: 23.1

q: Output reported inhibition of the compound O=C1CCCc2c1ccn2C(=O)c1cccnc1 on Bromodomain-containing protein 4 (Homo sapiens).
a: 34.2

q: Output reported inhibition of the compound COc1cc(C(=O)N2c3ccccc3NC(=O)C2C)cc(-c2ccccc2)c1 (stereo unspecified) on Bromodomain-containing protein 4 (Homo sapiens).
a: 88.7
